Test: mn = molality of the nth substance listed, in mol/kg
Conditions: 308.15 K; 101 kPa; Liquid; Vibrating tube method; m2 = 0
± gives the expanded uncertainty stated by the source.
Observed Property: mass density

1) O [water] + CC(=O)[O-].CCCCn1cc[n+](C)c1: 994.058 ± 0.11 kg/m3
2) O [water] + CCCCn1cc[n+](C)c1.[Cl-]: 994.058 ± 0.044 kg/m3
3) O [water] + CCCCn1cc[n+](C)c1.[I-]: 994.058 ± 0.092 kg/m3
4) O [water] + CCCCn1cc[n+](C)c1.F[B-](F)(F)F: 994.058 ± 0.055 kg/m3
5) O [water] + CCCCn1cc[n+](C)c1.[Br-]: 994.058 ± 0.064 kg/m3
6) O [water] + CCCCn1cc[n+](C)c1.O=S(=O)([O-])C(F)(F)F: 994.058 ± 0.079 kg/m3

All figures here come from the NIST ThermoML archive (doi:10.1016/j.jct.2012.03.025).
